This listing pairs molecules with measured TGI.
test system: MALME-3M melanoma; assay: NCI tumour cell line growth inhibition, 48 h

COc1cc(S(=O)(=O)Nc2ccc(-c3csc(N4C(=O)C(C)SC4c4cccs4)n3)cc2)ccc1Cl (stereo not given); > 100 µM
c1ccc(C2=NN2c2ccccc2)cc1; > 100 µM
CC[C@@H](C)/C=C(C)/C=C/C(=O)c1c(O)c(-c2ccc(OC(=O)[C@@]34CC[C@@](C)(C(=O)O3)C4(C)C)cc2)cn(O)c1=O; > 50 µM
CC(=O)OC1CCC2OOC1O2 (stereo not given); > 100 µM
CC1(C)C(=O)OC(n2cc(F)c(=O)[nH]c2=O)C1=O (stereo not given); > 100 µM
C[P+]1(Cc2ccccc2)CCCC1; > 100 µM

query: Fetch value of TGI on MALME-3M melanoma for O=C(O)c1ccc2c(c1)C(=O)N(c1ccc(S(=O)(=O)c3ccc(N4C(=O)c5ccc(C(=O)O)cc5C4=O)cc3)cc1)C2=O .
result: > 100 µM

query: Fetch value of TGI on MALME-3M melanoma for O=C(Nc1ccncc1)C(=O)c1cn(S(=O)(=O)c2cccc(Cl)c2)c2ccccc12 .
result: > 100 µM

query: Fetch value of TGI on MALME-3M melanoma for COc1cc(OCc2ccccc2)c2c(CCC(=O)O)cc(=O)oc2c1 (tested in a mixture with another compound) .
result: > 100 µM

query: Fetch value of TGI on MALME-3M melanoma for Cc1ccc2[nH]c3c(c(=O)n(C)c(=O)n3C)c2c1 .
result: > 100 µM

query: Fetch value of TGI on MALME-3M melanoma for N=c1oc2ccccc2cc1C(=O)Nc1cccc2ccccc12 .
result: > 100 µM

query: Fetch value of TGI on MALME-3M melanoma for Nc1cccc2c1-c1c(cccc1[N+](=O)[O-])C2=O .
result: > 100 µM

query: Fetch value of TGI on MALME-3M melanoma for C=C(C)[C@H]1CC[C@@]23O[C@@H]2[C@@H](C[C@@]2(C)CC(=O)[C@H](CC(=O)C1)O2)OC(=O)[C@@]12CC[C@H](C(=C)C)CC(=O)C[C@H]4O[C@](C)(CC4=O)C[C@@H](OC3=O)[C@@H]1O2 .
result: > 100 µM

query: Fetch value of TGI on MALME-3M melanoma for COc1ccc2c(c1)C(=Nc1ccc(F)c(Cl)c1)c1c-2c(Nc2ccc(F)c(Cl)c2)nc2ccccc12 .
result: > 100 µM

query: Fetch value of TGI on MALME-3M melanoma for CN1CCC2(CC1)N=C(SCC(=O)Nc1cnc3ccccc3c1)C(c1ccc(Br)cc1)=N2 .
result: 3.36 µM

query: Fetch value of TGI on MALME-3M melanoma for Cc1ccccc1NC(=O)Cc1nc2ccccc2s1 .
result: 30 µM

query: Fetch value of TGI on MALME-3M melanoma for Cc1cccc(C)c1NC(=O)CCC(=O)NC(N)=NC#N .
result: > 100 µM

query: Fetch value of TGI on MALME-3M melanoma for COc1ccc(Cn2cc(COc3cc(/C=C/C(=O)c4cc(OC)c(OC)c(OC)c4)ccc3OC)nn2)cc1 .
result: > 100 µM

query: Fetch value of TGI on MALME-3M melanoma for C=C1c2nc3ccccc3n2C=C(c2ccccc2)N1c1ccc(Cl)cc1 .
result: 51.2 µM

query: Fetch value of TGI on MALME-3M melanoma for Cc1ccc(/C=N/NC(=O)c2ccccc2Oc2ccccc2)o1 .
result: > 100 µM

query: Fetch value of TGI on MALME-3M melanoma for O=C=C=P(c1ccccc1)(c1ccccc1)c1ccccc1 .
result: > 100 µM

query: Fetch value of TGI on MALME-3M melanoma for O=C1C=C(c2ccccc2)OC1C1Sc2ccccc2NC1=O (stereo not given) .
result: > 100 µM

query: Fetch value of TGI on MALME-3M melanoma for O=C(NN1C(=O)CS(=O)(=O)C1c1ccc(Cl)c(Cl)c1)c1ccncc1 (stereo not given) .
result: > 100 µM
